System: CV-1
PROTOCOL: Cytotoxicity score in the HSV/CV-1 antiviral assay
EXPERIMENTAL PARAMETERS: 20 ng/mL, scale 0 (least toxic) to 16 (toxic)
Starred links: 1 amine or outer side, 2 acyl side, 3 side chain; linkers in the order of their positions; H or OH if unused. Positions of bridges follow the written chain, without caps; N, C: chain ends. Non-standard residues stand in square brackets, D forms with d. Residues, ends and D or L forms follow the SMILES beside them. *: point of attachment. X1 = CC[C@H](C)[C@@H](N[*:1])[C@@H](O)CC(=O)O[C@H](C(=O)[C@H](C)C(=O)[*:2])C(C)C; NMeY = CN[C@@H](Cc1ccc(O)cc1)C(=O)O; dNMeL = CN[C@H](CC(C)C)C(=O)O; Cbz = O=C(OCc1ccccc1)*; Lac = C[C@H](O)C(=O)O
QUANTITY: Cytotoxocity
Respond with the number and no other words.

>>> measurement("CC[C@H](C)[C@H]1NC(=O)[C@@H](NC(=O)[C@@H](CC(C)C)N(C)C(=O)[C@@H]2CCCN2C(=O)[C@H](C)OC(=O)[C@H](CCC(N)=O)NC(=O)OCc2ccccc2)[C@@H](C)OC(=O)[C@H](Cc2ccc(OC)cc2)N(C)C(=O)[C@@H]2CCCN2C(=O)[C@H](CC(C)C)NC(=O)[C@@H](C)C(=O)[C@H](C(C)C)OC(=O)C[C@@H]1O [Cbz-Gln-Didemnin B (161)] (Cbz-Q[Lac]P[dNMeL]T[X1]LP[NMeY](Me); ester 5-C)")
0

Moving on to the next molecule.
**Query** Given the entry CC[C@H](C)[C@H]1NC(=O)[C@@H](NC(=O)[C@@H](CC(C)C)N(C)C(=O)[C@@H]2CCCN2C(=O)[C@H](C)OC(=O)[C@H](CCC(N)=O)NC(=O)OCc2ccccc2)[C@@H](C)OC(=O)[C@H](Cc2ccc(OC)cc2)N(C)C(=O)[C@@H]2CCCN2C(=O)[C@H](CC(C)C)NC(=O)[C@@H](C)C(=O)[C@H](C(C)C)OC(=O)C[C@@H]1OC(=O)[C@H](CCC(N)=O)NC(=O)OCc1ccccc1 [Cbz-Gln[Cbz-GlnIst^2]DB (162)] , report its measured Cytotoxocity.
**Result** 0

====

Test system: CV-1
PROTOCOL: Cytotoxicity score in the HSV/CV-1 antiviral assay
EXPERIMENTAL PARAMETERS: 50 ng/mL, scale 0 (least toxic) to 16 (toxic)
QUANTITY: Cytotoxocity
Simply state the number, no unit and no words.

**Query** Given the entry CC[C@H](C)[C@H]1NC(=O)[C@@H](NC(=O)[C@@H](CC(C)C)N(C)C(=O)[C@@H]2CCCN2C(=O)[C@H](C)OC(=O)[C@@H](N)CCC(N)=O)[C@@H](C)OC(=O)[C@H](Cc2ccc(OC)cc2)N(C)C(=O)[C@@H]2CCCN2C(=O)[C@H](CC(C)C)NC(=O)[C@@H](C)C(=O)[C@H](C(C)C)OC(=O)C[C@@H]1OC(=O)[C@@H](N)CCC(N)=O [Gln[GlnIst^2]-Didemnin B (160), Glutaminyl-glutaminyl-didemnin B] , report its measured Cytotoxocity.
**Result** 0

====

System: CV-1
PROTOCOL: Cytotoxicity score in the HSV/CV-1 antiviral assay
EXPERIMENTAL PARAMETERS: 50 ng/mL, scale 0 (least toxic) to 16 (toxic)
Starred links: 1 amine or outer side, 2 acyl side, 3 side chain; linkers in the order of their positions; H or OH if unused. Positions of bridges follow the written chain, without caps; N, C: chain ends. Non-standard residues stand in square brackets, D forms with d. Residues, ends and D or L forms follow the SMILES beside them. X1 = CC[C@H](C)[C@@H](N[*:1])[C@@H](O)CC(=O)O[C@H](C(=O)[C@H](C)C(=O)[*:2])C(C)C; NMeY = CN[C@@H](Cc1ccc(O)cc1)C(=O)O; dNMeL = CN[C@H](CC(C)C)C(=O)O; pGlu = O=C1CC[C@@H](C(=O)O)N1; Lac = C[C@H](O)C(=O)O
QUANTITY: Cytotoxocity
// response body must contain only the number

Below are worked cases with known answers.
>>> measurement("CC[C@H](C)[C@H]1NC(=O)[C@@H](NC(=O)[C@@H](CC(C)C)N(C)C(=O)[C@@H]2CCCN2C(=O)[C@H](C)OC(=O)[C@H](CCC(N)=O)NC(=O)[C@@H]2CCC(=O)N2)[C@@H](C)OC(=O)[C@H](Cc2ccc(OC)cc2)N(C)C(=O)[C@@H]2CCCN2C(=O)[C@H](CC(C)C)NC(=O)[C@@H](C)C(=O)[C@H](C(C)C)OC(=O)C[C@@H]1O [Didemnin M (5), L-Pyroglutaminyl-L-glutaminyl-didemnin B] ([pGlu]Q[Lac]P[dNMeL]T[X1]LP[NMeY](Me); ester 6-C)")
16
>>> measurement("CC[C@H](C)[C@H]1NC(=O)[C@@H](NC(=O)[C@@H](CC(C)C)N(C)C(=O)[C@@H]2CCCN2C(=O)[C@H](C)OC(=O)[C@@H]2CCC(=O)N2)[C@@H](C)OC(=O)[C@H](Cc2ccc(OC)cc2)N(C)C(=O)[C@@H]2CCCN2C(=O)[C@H](CC(C)C)NC(=O)[C@@H](C)C(=O)[C@H](C(C)C)OC(=O)C[C@@H]1O [pGlu-Didemnin B (39), L-Pyroglutaminyl-didemnin B] ([pGlu][Lac]P[dNMeL]T[X1]LP[NMeY](Me); ester 5-C)")
16
>>> measurement("CC[C@H](C)[C@H]1NC(=O)[C@@H](NC(=O)[C@@H](CC(C)C)N(C)C(=O)[C@@H]2CCCN2C(=O)[C@H](C)OC(=O)[C@H](CCC(N)=O)NC(=O)OCc2ccccc2)[C@@H](C)OC(=O)[C@H](Cc2ccc(OC)cc2)N(C)C(=O)[C@@H]2CCCN2C(=O)[C@H](CC(C)C)NC(=O)[C@@H](C)C(=O)[C@H](C(C)C)OC(=O)C[C@@H]1OC(=O)[C@H](CCC(N)=O)NC(=O)OCc1ccccc1 [Cbz-Gln[Cbz-GlnIst^2]DB (162)]")
0
>>> measurement("CC[C@H](C)[C@H]1NC(=O)[C@@H](NC(=O)[C@@H](CC(C)C)N(C)C(=O)[C@@H]2CCCN2C(=O)[C@H](C)OC(=O)[C@@H]2CCC(=O)N2C(=O)OCc2ccccc2)[C@@H](C)OC(=O)[C@H](Cc2ccc(OC)cc2)N(C)C(=O)[C@@H]2CCCN2C(=O)[C@H](CC(C)C)NC(=O)[C@@H](C)C(=O)[C@H](C(C)C)OC(=O)C[C@@H]1O [Cbz-pGlu-Didemnin B (145)]")
0

Consider now this further compound.
**Query** What does the data say about its Cytotoxocity? Entry: CC[C@H](C)[C@H]1NC(=O)[C@@H](NC(=O)[C@@H](CC(C)C)N(C)C(=O)[C@@H]2CCCN2C(=O)C(C)O)[C@@H](C)OC(=O)[C@H](Cc2ccc(OC)cc2)N(C)C(=O)[C@@H]2CCCN2C(=O)[C@H](CC(C)C)NC(=O)[C@@H](C)C(=O)[C@H](C(C)C)OC(=O)C[C@@H]1O (some centres unmarked) [Didemnin (B) (2), Didemnin B, reference compound]
**Result** 0
